Where do these numbers come from? They come from ChEMBL document CHEMBL3885861.

species on record: Rattus norvegicus; experiment: Open TG-GATES - Regimen: Single; type: toxicity, organism-based, Sprague-Dawley; parameters: regimen Single, gender Male, age 6 weeks; details: in vivo, po, 100 mg/kg, 6 h, tissue Plasma, route gavage, dose level Low
READOUT_NAME: A/G
I only need the number, thanks.

Qu. Requested read-out: A/G. Entry: CNC(=C[N+](=O)[O-])NCCSCc1ccc(CN(C)C)o1
Ans. 1.7

Qu. Tell me the measured A/G of Cc1nnc2n1-c1ccc(Cl)cc1C(c1ccccc1Cl)=NC2 , please.
Ans. 0.9

Qu. A/G for CN/C(=N/CCSCc1nc[nH]c1C)NC#N ?
Ans. 1.6

Qu. If you can, please state the reported A/G value of O=C(OC[C@H]1O[C@@H](OC(=O)c2cc(O)c(O)c(OC(=O)c3cc(O)c(O)c(O)c3)c2)[C@H](OC(=O)c2cc(O)c(O)c(OC(=O)c3cc(O)c(O)c(O)c3)c2)[C@@H](OC(=O)c2cc(O)c(O)c(OC(=O)c3cc(O)c(O)c(O)c3)c2)[C@@H]1OC(=O)c1cc(O)c(O)c(OC(=O)c2cc(O)c(O)c(O)c2)c1)c1cc(O)c(O)c(OC(=O)c2cc(O)c(O)c(O)c2)c1 .
Ans. 2
